# Tested on: MCF-10A
# Assay Protocol: drug sensitivity score (DSS), CellTiter-Glo (DSS (AUC-based score)); higher = stronger drug effect (viability inhibition or cytotoxicity); extreme values may be limits of the assay
# Recorded Conditions: incubation time: 72 h
Measurement Kind: drug sensitivity score
Please respond with just the number, no unit label.

-- ask Tell me the measured drug sensitivity score of CN(Cc1cnc2nc(N)nc(N)c2n1)c1ccc(C(=O)N[C@@H](CCC(=O)O)C(=O)O)cc1 [Methotrexate] , please.
-- reply 0

-- ask Reported drug sensitivity score for "COc1cc(Nc2c(C#N)cnc3cc(OCCCN4CCN(C)CC4)c(OC)cc23)c(Cl)cc1Cl" : what is it?
-- reply 15.1

-- ask Need drug sensitivity score of "CCNC(=O)c1noc(-c2cc(C(C)C)c(O)cc2O)c1-c1ccc(CN2CCOCC2)cc1" , thanks.
-- reply 16.2

---

# System: MDA-MB-468
# Recorded Conditions: 72 h
Would you kindly list EC50, CellTiter-Blue viability for each of these molecules?

-- ask Given C/C(=C\c1csc(C)n1)[C@@H]1C[C@@H]2O[C@]2(C)CCC[C@H](C)[C@H](O)[C@@H](C)C(=O)C(C)(C)[C@@H](O)CC(=O)N1 [Ixabepilone] , state its recorded EC50, CellTiter-Blue viability.
-- reply 834 nM

-- ask What EC50, CellTiter-Blue viability value was documented for this molecule, "CO[C@@]12[C@H](COC(N)=O)C3=C(C(=O)C(C)=C(N)C3=O)N1C[C@@H]1N[C@@H]12" ?
-- reply 2270 nM

-- ask Suppose we examine the molecule "COc1ccc(S(=O)(=O)Nc2cccnc2Nc2ccc(O)cc2)cc1" ; what EC50, CellTiter-Blue viability value has been reported?
-- reply 748 nM

-- ask Fill in the blank: the reported EC50, CellTiter-Blue viability of "C=CCn1c(=O)c2cnc(Nc3ccc(N4CCN(C)CC4)cc3)nc2n1-c1cccc(C(C)(C)O)n1" is ____.
-- reply 797 nM

-- ask Which measured EC50, CellTiter-Blue viability value corresponds to CC(O)(CS(=O)(=O)c1ccc(F)cc1)C(=O)Nc1ccc(C#N)c(C(F)(F)F)c1 (stereo unspecified) [Bicalutamide] ?
-- reply > 10000 nM

-- ask Please look up its EC50, CellTiter-Blue viability: "CCNC(=O)c1noc(-c2cc(C(C)C)c(O)cc2O)c1-c1ccc(CN2CCOCC2)cc1"
-- reply 7.89 nM

---

# Tested on: BT-474
# Assay Protocol: normalised response (% of control), CellTox Green; higher = less cell death (100 = DMSO, 0 = benzethonium chloride kill control)
# Recorded Conditions: incubation time: 72 h
Hi there, I'd appreciate the recorded normalised response for every entry that follows.
Just the number in %, nothing appended.

-- ask Param readout= normalised response; system= BT-474; entry= CCNC(=O)CCC/C=C\C[C@@H]1[C@@H](/C=C/[C@@H](O)CCc2ccccc2)[C@H](O)C[C@@H]1O [Bimatoprost] (5500 nM) ; returns value.
-- reply 57

-- ask Could you share what normalised response was measured for O=C(CCCCCCC(=O)Nc1ccccc1)NO [Vorinostat] (100 nM) , tested on BT-474?
-- reply 71.5

-- ask State its normalised response on BT-474: Cc1cc(Nc2nc(N[C@@H](C)c3ncc(F)cn3)ncc2Cl)[nH]n1 [AZD1480] (100 nM)
-- reply 71.6

-- ask Lookup: normalised response / BT-474 / CN[C@@H](C)C(=O)N[C@H]1CN(C(=O)CC(C)C)CC[C@H]2CC[C@@H](C(=O)NC(c3ccccc3)c3ccccc3)N2C1=O [AT-406] (100 nM)
-- reply 94.9

-- ask Form field - read-out: normalised response; system: BT-474; submitted item: CNC(=O)c1ccccc1Sc1ccc2c(/C=C/c3ccccn3)n[nH]c2c1 [Axitinib] (10000 nM)
-- reply 99.4

-- ask Record lookup: for BT-474, what normalised response belongs to CC[C@H](CO)Nc1nc(NCc2ccccc2)c2ncn(C(C)C)c2n1 [Seliciclib] (10000 nM) ?
-- reply 100

-- ask Return normalised response measured with BT-474 given this molecule: COc1cc(Nc2c(C#N)cnc3cc(OCCCN4CCN(C)CC4)c(OC)cc23)c(Cl)cc1Cl [Bosutinib] (1000 nM)
-- reply 94.2

-- ask Give recorded normalised response with BT-474 for the following molecule: O=C(O)CNC(=O)c1c(O)c2ccccc2n(Cc2ccccc2)c1=O [IOX-2] (5000 nM)
-- reply 100

-- ask Give the reported normalised response for CC[C@H](CO)Nc1nc(NCc2ccccc2)c2ncn(C(C)C)c2n1 [Seliciclib] (1000 nM) (system: BT-474).
-- reply 101
